Reference source: PubChem BioAssay (NCI)

system: SK-MEL-28 melanoma; experiment: NCI-60 one-dose screen, 48 h; details: 10 µM unless noted
This is part of a sample that, as a whole, favours compounds with a hit. Of some 83,000 tested, about 20% had one in any assay. Activity calls are given as the source filed them. Rule for the calls: active = growth percent below 10; inactive = the rest.
Select the matching outcome among true (active), false (inactive)

Query: Hi, do you know how COc1cc(NC(N)=NCCC(C)(C)Oc2ccc(C(F)(F)F)cc2)ncc1C#N came out in this test?
Reply: true

Query: Hi, do you know how COc1ccc(C(=O)c2cc(OC)c(OC)c(OC)c2OC)cc1O came out in this test?
Reply: false

Query: Hi, do you know how CC(C)CC1NC(C)(C)CO1 (configuration not stated) came out in this test?
Reply: false

Query: Hi, do you know how OB(O)c1cccc(-c2nc3ccc4[nH]ncc4c3c3c2CCCC3)c1F came out in this test?
Reply: false

Query: Hi, do you know how COc1ccc(N=Cc2c(O)ccc3c2oc2cc(Cl)c(O)c(Cl)c23)cc1 came out in this test?
Reply: false

Query: Hi, do you know how Brc1cccc(-c2cc(-c3ccc4c(c3)OCCCO4)[nH]n2)c1 came out in this test?
Reply: false

Query: Hi, do you know how CN(C)c1ncnc2c1ccn2C1OC(CO)C(O)C1O (configuration not stated) came out in this test?
Reply: false

Query: Hi, do you know how CSc1nc2c(c(=O)[nH]1)C(c1ccc(C)cc1)C=C(C(=O)O)N2 (configuration not stated) came out in this test?
Reply: false

Query: Hi, do you know how CCCCOc1ccc(/C=C2/SC(N3CCOCC3)=NC2=O)cc1OCC came out in this test?
Reply: false

Query: Hi, do you know how C[n+]1c(/C=C/c2c(O)ccc3ccccc23)ccc2ccccc21 came out in this test?
Reply: false

Query: Hi, do you know how Nc1ccc(C(=O)CSc2nc3ccccc3[nH]2)cc1 came out in this test?
Reply: false

Query: Hi, do you know how COc1ccc(C2C=C(c3ccc(N)cc3)N=C3SC=CN32)cc1OC (configuration not stated) came out in this test?
Reply: false

Query: Hi, do you know how Nc1cccc(Cl)c1N came out in this test?
Reply: false

Query: Hi, do you know how C/C(=N/NC(=S)Nc1ccccc1)c1nc2ccc(Cl)cc2[nH]1 came out in this test?
Reply: true

Query: Hi, do you know how CCCCCCCCCCCC(=O)NCCC[N+](C)(C)CC(=O)[O-] came out in this test?
Reply: false

Query: Hi, do you know how O=C(NCc1cn(Cc2cccc(Oc3ccccc3)c2)nn1)c1cccnc1Nc1ccc(F)cc1 came out in this test?
Reply: false

Query: Hi, do you know how COc1ccc(NC(=O)c2cc(OC)c(OC)c(OC)c2)cc1O came out in this test?
Reply: false

* * *

test system: CAKI-1 renal; experiment: NCI-60 one-dose screen, 48 h (100 = growth as untreated, 0 = no growth, -100 = all killed); conditions: 10 µM unless noted
About 83,000 compounds went through this panel and 20% of them were active in at least one assay; those are over-represented in the sample as a whole. Calls of active or inactive are those of the source. The calls were made as follows: active = growth percent below 10; inactive = the rest.
Could you please report measured growth for the items listed next?

Query: Consider the molecule CC1(c2ccc(Cl)cc2)OC(=O)CC(=O)O1 and give its recorded growth.
Reply: 94.9% (inactive)

Query: Consider the molecule NC1N=C(SCC(=O)N2CCN(c3cc4c(cc3F)c(=O)c(C(=O)O)cn4C3CC3)CC2)NC(=O)/C1=C/c1ccc(Cl)cc1 (centres undefined) and give its recorded growth.
Reply: 91.2% (inactive)

Query: Consider the molecule COc1cccc(-c2cc3c(O)cc(C#N)cc3[nH]2)c1 and give its recorded growth.
Reply: 88.4% (inactive)

Query: Consider the molecule COc1ccc(C(=O)N2NC(=O)/C(=C/c3cn(-c4ccccc4)nc3-c3ccccc3)N=C2c2ccccc2)cc1 and give its recorded growth.
Reply: 95.6% (inactive)

Query: Consider the molecule Cn1c(=O)cc(NC(=O)CN2CCN(c3cc4c(cc3F)c(=O)c(C(=O)O)cn4C3CC3)CC2)[nH]c1=O and give its recorded growth.
Reply: 88.2% (inactive)

Query: Consider the molecule COc1ccc(S(=O)(=O)Nc2cc(/C=C\c3cc(OC)c(OC)c(OC)c3)cc(OC)c2OC)cc1 and give its recorded growth.
Reply: 22.9% (inactive)

Query: Consider the molecule Cc1[nH]c2ccc(F)cc2c1CCNC(=O)C1CCN(C(=O)c2ccccc2)CC1 and give its recorded growth.
Reply: 68.2% [25 µM] (inactive)

Query: Consider the molecule O=S(=O)(NCCNc1nccc(-c2c(-c3cccc(O)c3)nc3sccn23)n1)c1ccc(F)cc1 and give its recorded growth.
Reply: 82.7% (inactive)

Query: Consider the molecule CN(CCCCN(C[C@H]1Cc2ncccc2CN1)[C@H]1CCCc2cccnc21)C1CCC(F)(F)CC1 and give its recorded growth.
Reply: 73.9% (inactive)
